Every entry's value here was drawn from patent US12435061B2.

Reported solubility at 40 min values for a set of compounds
MEASUREMENT NOTES: Aqueous solubility assay in Normal Ringer Solution
EXPERIMENTAL CONDITIONS: Normal Ringer Solution, saline or isotonic, kinetic from dmso stock
PARAMETER: solubility at 40 min

COMPOUND | MEASURED RESULT
CCc1ccccc1C(O)c1ccc(N2CC[C@H](Oc3ncccc3Cl)C2)c(CO)c1 (some centres unmarked) [Compound 1-257] | > 6.6 µM
OCc1ccc(Oc2ccccc2Cl)cc1N1CC[C@H](Oc2ncccc2Cl)C1 [Compound 1-232] | 0.25 µM
OCc1cc([C@@H](O)c2ccccc2Cl)ccc1N1CC[C@H](Oc2ncccc2F)C1 [Compound 1-321] | > 9.8 µM
NC(=O)c1cc(C(F)(F)F)ccc1N1CC[C@H](Oc2ccc(C(F)(F)F)cn2)C1 [Compound 1-58] | > 11.3 µM
O=C(c1ccc(F)cn1)N1CCC(c2ccc(-c3ccccc3C3CC3)cc2CO)C1 (centres unmarked) [Compound 2-72] | ~25.5 µM
CCc1ccccc1C(=O)c1ccc(N2CC[C@H](Oc3ncccc3Cl)C2)c(CO)c1 [Compound 1-256] | ~0.45 µM
OCc1cc(-c2ccccc2)ccc1N1CC[C@H](Oc2ccccn2)C1 [Compound 1-274] | ~5.5 µM
Cc1ccc(Oc2ccc(N3CC[C@H](Oc4ncccc4Cl)C3)c(CO)c2)cc1 [Compound 1-250] | ~0.1 µM
OCc1cc(Oc2cccc(Cl)c2)ccc1N1CC[C@H](Oc2ccccn2)C1 [Compound 1-304] | ~1 µM
OCCc1cc(C(O)c2ccccc2Cl)ccc1N1CC[C@H](Nc2ccc(F)cn2)C1 (some centres unmarked) [Compound 1-390] | > 13.6 µM
NC(=O)c1cc(-c2ccccn2)ccc1N1CC[C@H](Oc2ccc(C(F)(F)F)cn2)C1 [Compound 1-81] | ~1.4 µM
CCc1cc(C)ccc1-c1ccc(C2CCN(C(=O)c3ccc(Cl)cn3)C2)c(CO)c1 (centres unmarked) [Compound 2-66] | ~1.9 µM
Cl.NC(=O)c1cc(-c2cccnc2)ccc1N1CC[C@@H](Oc2ncccc2Cl)C1 [Compound 1-74] | > 13.5 µM
CC(C)c1ccccc1Oc1ccc(C2CCN(C(=O)c3ncccc3Cl)C2)c(C(N)=O)c1 (centres unmarked) [Compound 2-26] | > 19.2 µM
CC(C)c1ccccc1Oc1ccc(C2CCN(C(=O)c3cccc(Cl)n3)C2)c(CO)c1 (centres unmarked) [Compound 2-20] | ~1.6 µM
CCc1ccccc1-c1ccc(N2CC[C@H](Oc3ncccc3F)C2)c(CO)n1 [Compound 1-204] | > 1.8 µM
O=C(c1cnccn1)N1CCC(c2ccc(-c3ccccc3C3CC3)cc2CO)C1 (centres unmarked) [Compound 2-105] | > 21 µM

* * *

EXPERIMENTAL TARGET: UniProt:Q8NET8
MEASUREMENT NOTES: Whole-cell patch clamp, hTRPV3 Phase 1 / Phase 2 currents
Format: cell-based
EXPERIMENTAL CONDITIONS: Phase 1 current, inward, whole-cell patch clamp; read-out: hTRPV3 Patch P1 Inwd
PARAMETER: IC50

COMPOUND | EXPERIMENTAL TARGET | PARAMETER | MEASURED RESULT
Cc1ccc(C(=O)c2ccc(N3CC[C@H](Oc4ncccc4F)C3)c(CCO)c2)cc1 | UniProt:Q8NET8 | IC50 | > 1000 nM
OCCOc1cc(-c2ccccc2Cl)ccc1N1CC[C@H](Oc2ccc(C(F)(F)F)cn2)C1 | UniProt:Q8NET8 | IC50 | > 1000 nM
O=C(c1ccc(F)cc1)c1ccc(C2CCN(C(=O)c3ncccc3Cl)C2)c(CO)c1 (centres unmarked) | UniProt:Q8NET8 | IC50 | > 1000 nM
OCc1cc(-c2ccccc2)ncc1N1CC[C@H](Oc2ccc(C(F)(F)F)cn2)C1 | UniProt:Q8NET8 | IC50 | 100 to 1000 nM
CC(C)c1ccccc1-c1ccc(C2CCN(C(=O)c3ccc(Cl)cn3)C2)c(CO)c1 (centres unmarked) | UniProt:Q8NET8 | IC50 | < 10 nM
O=C(c1ccccc1N1CC[C@@H](Oc2ccc(C(F)(F)F)cn2)C1)N(Cc1ccccc1)Cc1ccccc1 | UniProt:Q8NET8 | IC50 | > 1000 nM
CCc1ccccc1Oc1ccc(N2CC[C@H](Oc3ncccc3Cl)C2)c(CO)c1 | UniProt:Q8NET8 | IC50 | < 10 nM
Cc1ccccc1-c1ccc(CO)c(N2CC[C@H](Oc3ncccc3Cl)C2)c1 | UniProt:Q8NET8 | IC50 | 100 to 1000 nM

* * *

Reported IC50 values for a set of compounds
EXPERIMENTAL TARGET: hTRPV3 (Homo sapiens (Human), UniProt Q8NET8)
Sequence (Q8NET8 whole entry): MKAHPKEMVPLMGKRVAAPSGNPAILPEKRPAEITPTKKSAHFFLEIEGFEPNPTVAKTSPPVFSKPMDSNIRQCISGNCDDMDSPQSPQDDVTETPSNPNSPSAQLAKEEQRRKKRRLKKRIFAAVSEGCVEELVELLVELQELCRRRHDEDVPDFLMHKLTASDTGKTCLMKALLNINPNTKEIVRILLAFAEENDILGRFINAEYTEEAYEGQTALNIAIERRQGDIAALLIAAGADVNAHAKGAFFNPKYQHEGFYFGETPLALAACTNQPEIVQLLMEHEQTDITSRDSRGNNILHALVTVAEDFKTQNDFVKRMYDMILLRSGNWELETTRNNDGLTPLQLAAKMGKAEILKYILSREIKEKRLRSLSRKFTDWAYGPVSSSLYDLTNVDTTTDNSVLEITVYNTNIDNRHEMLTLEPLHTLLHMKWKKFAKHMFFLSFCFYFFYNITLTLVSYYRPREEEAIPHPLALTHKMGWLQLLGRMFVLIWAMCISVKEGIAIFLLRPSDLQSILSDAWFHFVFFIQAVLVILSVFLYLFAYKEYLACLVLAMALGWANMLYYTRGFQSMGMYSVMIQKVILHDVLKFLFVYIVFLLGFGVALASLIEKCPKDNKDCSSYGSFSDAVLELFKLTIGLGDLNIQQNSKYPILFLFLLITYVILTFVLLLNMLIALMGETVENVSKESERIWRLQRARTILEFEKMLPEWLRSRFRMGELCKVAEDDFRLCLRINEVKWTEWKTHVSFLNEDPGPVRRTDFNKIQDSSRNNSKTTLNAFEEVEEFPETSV
MEASUREMENT NOTES: Whole-cell patch clamp, hTRPV3 Phase 1 / Phase 2 currents
Format: cell-based
EXPERIMENTAL CONDITIONS: Phase 1 current, human TRPV3; read-out: hTRPV3 (nM) Phase 1

COMPOUND | IC50 [nM]
CC(C)c1ccccc1-c1ccc(C2CCN(C(=O)c3ccccn3)C2)c(CO)c1 (stereo not shown) [Compound 2-42] | 22.7
O=C(c1cc(Cl)ccn1)N1CCC(c2ccc(-c3ccccc3C3CC3)cc2CO)C1 (stereo not shown) [Compound 2-60] | 26.5
CCc1ccccc1-c1ccc(C2CCN(C(=O)c3ccc(C(F)(F)F)cn3)C2)c(CO)c1 (stereo not shown) [Compound 2-47] | 18.4
O=C(c1ccc(C(F)(F)F)cn1)N1CCC(c2ccc(-c3ccccc3)nc2CO)C1 (stereo not shown) [Compound 2-81] | 268

* * *

EXPERIMENTAL TARGET: UniProt:Q8NET8
MEASUREMENT NOTES: Whole-cell patch clamp, hTRPV3 Phase 1 / Phase 2 currents
Assay type: cell-based
EXPERIMENTAL CONDITIONS: Phase 2 current; read-out: hTRPV3 (nM) (Phase 2)
Reported IC50 values for a set of molecules

MOLECULE | EXPERIMENTAL TARGET | RESULT UNIT | BOUND TYPE | IC50
Cc1ccccc1C(O)c1ccc(N2CC[C@H](Oc3ncccc3Cl)C2)c(CO)c1 (some centres unmarked) [Compound 1-247] | UniProt:Q8NET8 | nM | = | 202
Cc1ccc(O[C@H]2CCN(c3ccc(-c4ccccc4C#N)nc3CO)C2)nc1 [Compound 1-190] | UniProt:Q8NET8 | nM | > | 3200
OCc1cc(Oc2ccccc2)ccc1N1CC[C@H](Oc2ncccc2Cl)C1 [Compound 1-168] | UniProt:Q8NET8 | nM | = | 90.5
NC(=O)c1cc(-c2ncc[nH]2)ccc1N1CC[C@@H](Oc2ccc(C(F)(F)F)cn2)C1 [Compound 1-107] | UniProt:Q8NET8 | nM | > | 1000
NC(=O)c1cc(-c2ccccc2)cnc1N1CC[C@H](Nc2ccc(C(F)(F)F)cn2)C1 [Compound 1-374] | UniProt:Q8NET8 | nM | > | 3200
OCc1ccc(-c2ccccc2)cc1N1CC[C@H](Oc2ccc(C(F)(F)F)cn2)C1 [Compound 1-180] | UniProt:Q8NET8 | nM | = | 1860
OCCc1cc(C(O)c2ccc(F)cc2)ccc1N1CC[C@H](Oc2ncccc2Cl)C1 (some centres unmarked) [Compound 1-296] | UniProt:Q8NET8 | nM | = | 2160

* * *

MEASUREMENT NOTES: Aqueous solubility assay in Normal Ringer Solution
EXPERIMENTAL CONDITIONS: Normal Ringer Solution, room temperature

SMILES RECORD | Solubility Ringer (nM)
CC(C)(C)OC(=O)N1CCC(c2ccc(N3CC[C@H](Oc4ccc(C(F)(F)F)cn4)C3)c(CO)c2)CC1 | BLQ
OCc1cc(-c2ccccc2)ccc1N1CC[C@@H](Oc2ccc(C(F)(F)F)cn2)C1 | BLQ
CC(C)c1ccccc1Oc1ccc(N2CC[C@H](Oc3ccccn3)C2)c(CCO)c1 | BLQ
CC(C)c1ccccc1Oc1ccc(N2CC[C@H](Oc3ncccc3Cl)C2)c(CCO)c1 | BLQ
N#Cc1ccccc1-c1ccc(N2CC[C@H](Oc3ccc(C(F)(F)F)cn3)C2)c(CO)c1 | BLQ
CCc1ccccc1Oc1ccc(CO)c(N2CC[C@H](Oc3ncccc3Cl)C2)c1 | BLQ
OCc1cc(Oc2ccc(Cl)cc2)ccc1N1CC[C@H](Oc2ncccc2Cl)C1 | BLQ
N#Cc1cc(C(F)(F)F)ccc1N1CC[C@H](Oc2ccc(C(F)(F)F)cn2)C1 | BLQ

* * *

EXPERIMENTAL TARGET: hTRPV3 (Homo sapiens (Human))
MEASUREMENT NOTES: Whole-cell patch clamp, hTRPV3 Phase 1 / Phase 2 currents
Format: cell-based
EXPERIMENTAL CONDITIONS: Phase 1 current, inward, whole-cell patch clamp; read-out: hTRPV3 Patch P1 Inwd

COMPOUND | EXPERIMENTAL TARGET | IC50
CCc1ccccc1-c1ccc(C2CCN(C(=O)c3ncccc3F)C2)c(CO)c1 (stereo not shown) [Compound 2-54] | hTRPV3 (Homo sapiens (Human)) | 10 to 100 nM
CC(C)c1ccccc1-c1ccc(C2CCN(C(=O)c3ncccc3Cl)C2)c(C(N)=O)c1 (stereo not shown) [Compound 2-41] | hTRPV3 (Homo sapiens (Human)) | 100 to 1000 nM
O=C(c1ccc(N2CC[C@H](Oc3ncccc3F)C2)c(CO)c1)c1ccccc1Cl [Compound 1-265] | hTRPV3 (Homo sapiens (Human)) | > 1000 nM
Cc1cccc(C(=O)c2ccc(C3CCN(C(=O)c4ncccc4Cl)C3)c(CO)c2)c1 (single isomer, unassigned) [Compound 2-3] | hTRPV3 (Homo sapiens (Human)) | 10 to 100 nM
